ASSAY_TARGET: His-GST-TVMV-hRIPK1(1-324) (Homo sapiens (Human))
ASSAY_REMARKS: RIPK1 HTRF Binding Assay
PROTOCOL_CONDITIONS: HTRF binding, 1 h at rt; read-out: RIPK1 (IC50)
READOUT_NAME: IC50 (µM)
The reply should be a number in µM, with the unit left off.

- CC(=O)Nc1cn2nc(-c3cnc(C)c(C(=O)NCc4cc(F)cc(F)c4OC4CCCOC4)c3)ccc2n1 (stereo not shown) [Example 186]: 0.015
- CNCC(=O)Nc1cn2nc(-c3cnc(C)c(C(=O)N[C@H](C)c4cc(OC(F)(F)F)ccc4F)c3)ccc2n1 [Example 340]: 0.067
- Cc1ncc(-c2ccc3nc(NC(=O)CO)cn3n2)cc1C(=O)N[C@@H](C)c1cc(OC(F)(F)F)ccc1F [Example 181]: 0.103

From here, focus on the item given below.
Asked: Return reported IC50; argument: Cc1ncc(-c2ccc3nc(NC(=O)CO)cn3n2)cc1C(=O)NCc1cc(OC(F)(F)F)ccc1F [Example 39]
Given back: 0.055

---

ASSAY_TARGET: His-GST-TVMV-hRIPK1(1-324) (Homo sapiens (Human))
ASSAY_REMARKS: RIPK1 HTRF Binding Assay
PROTOCOL_CONDITIONS: HTRF binding, 1 h at rt; read-out: RIPK1 (IC50)
Experimental: A solution was prepared containing 0.2 nM Anti GST-Tb (Cisbio, 61GSTTLB), 90.6 nM probe and 1 nM His-GST-TVMV-hRIPK1(1-324) in FRET Buffer (20 mM HEPES, 10 mM MgCl2, 0.015% Brij-35, 4 mM DTT, 0.05 mg/mL BSA). […] FRET was measured using the EnVision plate reader (Excitation: 340 nm, Emission: 520 nm/[…]). Total signal (0% inhibition) was calculated from wells containing 10 nL DMSO only. […]
Counter-ions that a name gives are not always drawn.
READOUT_NAME: pIC50
pIC50 field: float, defined as -log10 of concentration (mol/L).

Sample records with pIC50:
* [2H]C([2H])([2H])Oc1nc(C)c(-c2ccc3nc(NC(C)=O)cn3n2)cc1C(=O)NCc1cc(F)cc(F)c1OCC1CC1 [Example 177] | 8.70
* COc1ncc(-c2ccc3nc(NC(C)=O)cn3n2)cc1C(=O)NCc1ccc(F)c(F)c1OC(C)C1CC1 (centres unmarked) [Example 131] | 7.10
* CC(=O)Nc1cn2nc(-c3cncc(C(=O)NCc4c(F)cccc4OC4CCCC4)c3)ccc2n1 [Example 240] | 8.30
* COc1nc(C)c(-c2ccc3nc(NC(C)=O)cn3n2)cc1C(=O)NCc1ccc(F)c(F)c1OCC1CC1 [Example 286] | 8.05
* COc1ncc(-c2ccc3nc(NC(C)=O)cn3n2)cc1C(=O)NCc1ccccc1N1CCOCC1 [Example 162] | 7.19
* CC(=O)Nc1cn2nc(-c3cnc(C)c(C(=O)NCc4cc(F)cc(OC(F)(F)F)c4)c3)ccc2n1 [Example 207, TFA] | 7.54
* CCC(=O)Nc1cn2nc(-c3cnc(OC)c(C(=O)NCC[C@H](O)c4ccc(Cl)cc4)c3)ccc2n1 [Example 246] | 7.04
* CC(=O)Nc1cn2nc(-c3ccc(C)c(C(=O)NCc4cc(F)ccc4-c4cnn(C)c4)c3)ccc2n1 [Example 403] | 7.17
* CC(=O)Nc1cn2nc(-c3cnc(Cl)c(C(=O)NCc4cc(OC(F)(F)F)ccc4F)c3)ccc2n1 [Example 12] | 8.30
* COc1ncc(-c2ccc3nc(NC(C)=O)c(C)n3n2)cc1C(=O)NCc1cc(C(F)(F)F)ccc1F [Example 254] | 7.00

Asked: Please tell me: pIC50 of [2H]C([2H])([2H])Oc1nc(C)c(-c2ccc3nc(NC(C)=O)cn3n2)cc1C(=O)NC([2H])([2H])c1cc(OC(F)(F)F)ccc1F [Example 175] , system His-GST-TVMV-hRIPK1(1-324) (Homo sapiens (Human))?
Given back: 8.40

Asked: Please tell me: pIC50 of COc1c(F)cc(F)cc1CNC(=O)c1c(C)ccc(-c2ccc3nc(NC(C)=O)cn3n2)c1F [Example 414] , system His-GST-TVMV-hRIPK1(1-324) (Homo sapiens (Human))?
Given back: 7.04

Asked: Please tell me: pIC50 of CC(=O)Nc1cn2nc(-c3cc(C(=O)NCc4cccc(F)c4OC4C[C@@H](C)O[C@@H](C)C4)c(C)nc3C)ccc2n1 (some centres unmarked) [Example 63] , system His-GST-TVMV-hRIPK1(1-324) (Homo sapiens (Human))?
Given back: 6.83

Asked: Please tell me: pIC50 of COc1ncc(-c2ccc3nc(NC(C)=O)cn3n2)cc1C(=O)NCc1cc(F)cc(F)c1OC1COC1 [Example 115] , system His-GST-TVMV-hRIPK1(1-324) (Homo sapiens (Human))?
Given back: 7.92

---

ASSAY_TARGET: His-GST-TVMV-hRIPK1(1-324) (Homo sapiens (Human), UniProt Q13546)
Sequence (Q13546 1-324): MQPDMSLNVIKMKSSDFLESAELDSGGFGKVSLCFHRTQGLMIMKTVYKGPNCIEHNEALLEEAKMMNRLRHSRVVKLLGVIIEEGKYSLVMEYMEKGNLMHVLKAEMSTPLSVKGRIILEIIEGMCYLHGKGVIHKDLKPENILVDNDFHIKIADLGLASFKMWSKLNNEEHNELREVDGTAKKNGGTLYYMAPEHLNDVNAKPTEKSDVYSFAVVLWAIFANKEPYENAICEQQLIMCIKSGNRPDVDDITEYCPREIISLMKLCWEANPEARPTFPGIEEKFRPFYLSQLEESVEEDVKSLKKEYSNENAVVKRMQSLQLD
ASSAY_REMARKS: RIPK1 HTRF Binding Assay
PROTOCOL_CONDITIONS: HTRF binding, 1 h at rt; read-out: RIPK1 (IC50)
READOUT_NAME: pIC50
pIC50 field: float, defined as -log10 of concentration (mol/L).

Sample records with pIC50:
* CC(=O)Nc1cn2nc(-c3cc(C(=O)NCc4cc(OC(F)(F)F)ccc4F)cnc3C)ccc2n1 | 7.34
* COc1nc(C)c(-c2ccc3nc(NC(C)=O)cn3n2)cc1C(=O)NCCc1cccc(OC(F)(F)F)c1 | 6.69

Asked: Return reported pIC50; argument: [2H]C([2H])([2H])Oc1nc(C)c(-c2ccc3nc(NC(C)=O)cn3n2)cc1C(=O)NCc1cc(F)cc(F)c1OC1CC(C)OC(C)C1 (stereo not shown)
Given back: 7.74

Asked: Return reported pIC50; argument: COc1ncc(-c2ccc3nc(NC(C)=O)cn3n2)cc1C(=O)NCc1cc(F)cc(OC(F)(F)F)c1
Given back: 7.89

Asked: Return reported pIC50; argument: [2H]C([2H])(NC(=O)c1cc(-c2ccc3nc(NC(=O)CO)cn3n2)cnc1C)c1cc(F)cc(F)c1OC1CCOCC1
Given back: 8.05

Asked: Return reported pIC50; argument: [2H]C([2H])(NC(=O)c1cc(-c2ccc3nc(NC(C)=O)cn3n2)cnc1C)c1cc(C(F)(F)F)ccc1F
Given back: 7.77

Asked: Return reported pIC50; argument: COc1ncc(-c2ccc3nc(NC(=O)C(C)C)cn3n2)cc1C(=O)NCc1cc(F)cc(F)c1OCC1CC1
Given back: 8.15

---

ASSAY_TARGET: His-GST-TVMV-hRIPK1(1-324) (Homo sapiens (Human), UniProt Q13546)
ASSAY_REMARKS: RIPK1 HTRF Binding Assay
PROTOCOL_CONDITIONS: HTRF binding, 1 h at rt; read-out: RIPK1 (IC50)
Where a name gives a salt, the structure may show the parent alone.
Field: label. Allowed values: yes (1) (IC50 < 7 nM) or no (0) (IC50 >= 7 nM).

- COc1ncc(-c2ccc3nc(NC(=O)CO)cn3n2)cc1C(=O)NCc1cc(OC(F)(F)F)ccc1F: no (0)
- [2H]C([2H])([2H])Oc1ncc(-c2ccc3nc(NC(C)=O)cn3n2)cc1C(=O)NC(C)c1ccccc1OC(F)(F)F (centres unmarked) [Example 54]: yes (1)
- CC(=O)Nc1cn2nc(-c3cnc(C)c(C(=O)NC(C)c4ccccc4OC(F)(F)F)c3)ccc2n1 (centres unmarked) [Example 202]: no (0)
- COc1ncc(-c2ccc3nc(NC(C)=O)cn3n2)cc1C(=O)N[C@H](C)c1cccc(OC(F)(F)F)c1: no (0)
- COc1ncc(-c2ccc3nc(NC(C)=O)cn3n2)cc1C(=O)NCc1ccc(F)c(F)c1OC(C)C1CC1 (centres unmarked) [Example 132]: no (0)
- CC(=O)Nc1cn2nc(-c3cnc(C)c(C(=O)NCc4cc(F)ccc4OCC4CCCC4)c3)ccc2n1: yes (1)

Asked: # TODO verify IC50 < 7 nM strictly for this compound: [2H]C([2H])([2H])[C@H](NC(=O)c1cc(-c2ccc3nc(NC(C)=O)cn3n2)cnc1C)c1cc(C(F)(F)F)ccc1F
Given back: no (0)

Asked: # TODO verify IC50 < 7 nM strictly for this compound: [2H]C([2H])([2H])Oc1ncc(-c2ccc3nc(NC(C)=O)cn3n2)cc1C(=O)NC([2H])([2H])c1cc(F)cc(F)c1OC1CCOCC1
Given back: yes (1)

Asked: # TODO verify IC50 < 7 nM strictly for this compound: CC(=O)Nc1cn2nc(-c3cnc(C)c(C(=O)NCc4cc(F)cc(F)c4OCC4CCC4)c3)ccc2n1 [Example 210, TFA]
Given back: yes (1)

Asked: # TODO verify IC50 < 7 nM strictly for this compound: [2H]C([2H])([2H])Oc1nc(C)c(-c2ccc3nc(NC(C)=O)cn3n2)cc1C(=O)NC(C)c1ccccc1OC(F)(F)F (single isomer, unassigned) [Example 13-1]
Given back: no (0)

Asked: # TODO verify IC50 < 7 nM strictly for this compound: COc1nc(C)c(-c2ccc3nc(NC(C)=O)cn3n2)cc1C(=O)NC(C)c1cccc(OC(F)(F)F)c1 (centres unmarked) [Example 292]
Given back: no (0)

Asked: # TODO verify IC50 < 7 nM strictly for this compound: CC(=O)Nc1cn2nc(-c3cnc(C)c(C(=O)NCc4cc(F)cc(F)c4OC4CC(C)OC(C)C4)c3)ccc2n1 (centres unmarked)
Given back: no (0)
